Data provenance is paper PMC11131246.

- test: Biodistribution of 67Ga-radiolabeled peptides
- Parameters: species or system mouse
- condition: female, CD1, mouse, in vivo, iv, 100 uCi, total radioactivity, brain without perfusion, 1 h post injection; CD1 female mice, i.v. tail vein; γ counter; mean ± SD, n = 3; read-out: Tissue distribution, Brain (brain uptake)
Residues, ends and D or L forms follow the SMILES beside them.
metric.name: tissue uptake at 1 h (%ID/g)
A number alone suffices; assume %ID/g.

q: Provide tissue uptake at 1 h value for the following compound: CC[C@H](C)[C@H](NC(=O)CNC(=O)[C@H](CCCNC(=N)N)NC(=O)[C@H](Cc1ccc(O)cc1)NC(=O)[C@H](CS)NC(=O)[C@@H](NC(=O)[C@H](CCCNC(=N)N)NC(=O)[C@H](Cc1ccccc1)NC(=O)[C@H](CS)NC(=O)[C@H](Cc1c[nH]c2ccccc12)NC(=O)[C@@H](N)CCCCN)C(C)C)C(=O)N[C@@H](CS)C(=O)N[C@@H](Cc1ccc(O)cc1)C(=O)N[C@@H](CCCNC(=N)N)C(=O)N[C@@H](CCCNC(=N)N)C(=O)N[C@@H](CS)C(=O)N[C@@H](CCCNC(=N)N)C(N)=O [non-BBBpS_2] (H-KWCFRVCYRGICYRRCR-NH2)
a: 0.13

---

- test: Biodistribution of 67Ga-radiolabeled peptides
- Design: species or system mouse
- condition: female, CD1, mouse, in vivo, iv, 100 uCi, total radioactivity, Tissue distribution, Brain (brain uptake)
- Experimental: All animal experiments were performed in compliance with national and EU legislation for good practices on laboratory animal science. The animals were housed in a temperature and humidity-controlled environment with a 12 h light/12 h dark schedule. Biodistribution of radiolabeled peptides was performed on 7 weeks old CD1 female mice. Animals were intravenously injected into the tail vein with 100 µL of a 25 µM saline solution of the ^67Ga-peptide with a radioactivity around 100 µCi. […]
Residues, ends and D or L forms follow the SMILES beside them. *: point of attachment. NODAGA = O=C(O)CN1CCN(CC(=O)O)CCN(C(CCC(=O)*)C(=O)O)CC1
metric.name: tissue uptake at 1 h (%ID/g)
A number alone suffices; assume %ID/g.

compound	measure.unit	tissue uptake at 1 h
CC[C@H](C)[C@H](NC(=O)[C@H](C)NC(=O)CNC(=O)[C@H](CO)NC(=O)[C@H](CCCNC(=N)N)NC(=O)[C@H](Cc1ccc(O)cc1)NC(=O)[C@H](CCCCN)NC(=O)CCC(C(=O)O)N1CCN(CC(=O)O)CCN(CC(=O)O)CC1)C(=O)N[C@H](C(=O)N[C@H](C(=O)NCC(=O)N[C@@H](Cc1ccc(O)cc1)C(N)=O)[C@@H](C)CC)[C@@H](C)O (stereo partly shown) [67Ga-BBBpS_2, metal not drawn] ({NODAGA}-KYRSGAITIGY-NH2)	%ID/g	0.09
CC[C@H](C)[C@H](NC(=O)[C@H](Cc1c[nH]cn1)NC(=O)CCC(C(=O)O)N1CCN(CC(=O)O)CCN(CC(=O)O)CC1)C(=O)N[C@@H](CCC(N)=O)C(=O)N[C@@H](CC(C)C)C(=O)N[C@@H](CO)C(=O)N1CCC[C@H]1C(=O)N[C@@H](Cc1ccccc1)C(=O)N[C@@H](CO)C(=O)N[C@@H](CCC(N)=O)C(=O)N[C@@H](CO)C(=O)N[C@@H](Cc1c[nH]c2ccccc12)C(=O)N[C@@H](CCCNC(=N)N)C(N)=O (stereo partly shown) [67Ga-BBBpS_5, metal not drawn] ({NODAGA}-HIQLSPFSQSWR-NH2)	%ID/g	0.05

q: Provide tissue uptake at 1 h value for the following compound: CC[C@H](C)[C@H](NC(=O)[C@H](C)NC(=O)CNC(=O)[C@H](CCCCN)NC(=O)[C@H](Cc1ccc(O)cc1)NC(=O)[C@H](CCCCN)NC(=O)CCC(C(=O)O)N1CCN(CC(=O)O)CCN(CC(=O)O)CC1)C(=O)N[C@H](C(=O)NCC(=O)N[C@@H](CC(N)=O)C(=O)N[C@H](C(=O)N[C@@H](CCCCN)C(N)=O)[C@@H](C)CC)[C@@H](C)CC (stereo partly shown) [67Ga-BBBpS_1, metal not drawn] ({NODAGA}-KYKGAIIGNIK-NH2)
a: 0.04

q: Provide tissue uptake at 1 h value for the following compound: CC(C)C[C@H](NC(=O)[C@H](Cc1c[nH]c2ccccc12)NC(=O)[C@H](Cc1ccccc1)NC(=O)[C@H](CCC(N)=O)NC(=O)[C@H](C)NC(=O)[C@H](CO)NC(=O)[C@H](CC(=O)O)NC(=O)[C@@H]1CCCN1C(=O)[C@H](CCCNC(=N)N)NC(=O)[C@H](CC(N)=O)NC(=O)CCC(C(=O)O)N1CCN(CC(=O)O)CCN(CC(=O)O)CC1)C(=O)N[C@@H](Cc1c[nH]cn1)C(=O)N[C@@H](Cc1c[nH]cn1)C(N)=O (stereo partly shown) [67Ga-BBBpS_9, metal not drawn] ({NODAGA}-NRPDSAQFWLHH-NH2)
a: 0.05

---

- test: Biodistribution of 67Ga-radiolabeled peptides
- Parameters: species or system mouse
- condition: female, CD1, mouse, in vivo, iv, 100 uCi, total radioactivity, Tissue distribution, Stomach
Residues, ends and D or L forms follow the SMILES beside them. *: point of attachment. NODAGA = O=C(O)CN1CCN(CC(=O)O)CCN(C(CCC(=O)*)C(=O)O)CC1
metric.name: tissue uptake at 1 h (%ID/g)
A number alone suffices; assume %ID/g.

q: Provide tissue uptake at 1 h value for the following compound: CC[C@H](C)[C@H](NC(=O)[C@H](C)NC(=O)CNC(=O)[C@H](CCCCN)NC(=O)[C@H](Cc1ccc(O)cc1)NC(=O)[C@H](CCCCN)NC(=O)CCC(C(=O)O)N1CCN(CC(=O)O)CCN(CC(=O)O)CC1)C(=O)N[C@H](C(=O)NCC(=O)N[C@@H](CC(N)=O)C(=O)N[C@H](C(=O)N[C@@H](CCCCN)C(N)=O)[C@@H](C)CC)[C@@H](C)CC (stereo partly shown) [67Ga-BBBpS_1, metal not drawn] ({NODAGA}-KYKGAIIGNIK-NH2)
a: 0.1

---

Parameter tissue uptake at 1 h: see the listing below.
- test: Biodistribution of 67Ga-radiolabeled peptides
- Design: species or system mouse
- condition: female, CD1, mouse, in vivo, iv, 100 uCi, total radioactivity, Tissue distribution, Liver
Residues, ends and D or L forms follow the SMILES beside them. *: point of attachment. NODAGA = O=C(O)CN1CCN(CC(=O)O)CCN(C(CCC(=O)*)C(=O)O)CC1

compound	tissue uptake at 1 h
CC(C)C[C@H](NC(=O)[C@H](Cc1c[nH]c2ccccc12)NC(=O)[C@H](Cc1ccccc1)NC(=O)[C@H](CCC(N)=O)NC(=O)[C@H](C)NC(=O)[C@H](CO)NC(=O)[C@H](CC(=O)O)NC(=O)[C@@H]1CCCN1C(=O)[C@H](CCCNC(=N)N)NC(=O)[C@H](CC(N)=O)NC(=O)CCC(C(=O)O)N1CCN(CC(=O)O)CCN(CC(=O)O)CC1)C(=O)N[C@@H](Cc1c[nH]cn1)C(=O)N[C@@H](Cc1c[nH]cn1)C(N)=O (stereo partly shown) [67Ga-BBBpS_9, metal not drawn] ({NODAGA}-NRPDSAQFWLHH-NH2)	2.6 %ID/g
CC[C@H](C)[C@H](NC(=O)[C@H](C)NC(=O)CNC(=O)[C@H](CCCCN)NC(=O)[C@H](Cc1ccc(O)cc1)NC(=O)[C@H](CCCCN)NC(=O)CCC(C(=O)O)N1CCN(CC(=O)O)CCN(CC(=O)O)CC1)C(=O)N[C@H](C(=O)NCC(=O)N[C@@H](CC(N)=O)C(=O)N[C@H](C(=O)N[C@@H](CCCCN)C(N)=O)[C@@H](C)CC)[C@@H](C)CC (stereo partly shown) [67Ga-BBBpS_1, metal not drawn] ({NODAGA}-KYKGAIIGNIK-NH2)	0.3 %ID/g
CC[C@H](C)[C@H](NC(=O)[C@H](C)NC(=O)CNC(=O)[C@H](CO)NC(=O)[C@H](CCCNC(=N)N)NC(=O)[C@H](Cc1ccc(O)cc1)NC(=O)[C@H](CCCCN)NC(=O)CCC(C(=O)O)N1CCN(CC(=O)O)CCN(CC(=O)O)CC1)C(=O)N[C@H](C(=O)N[C@H](C(=O)NCC(=O)N[C@@H](Cc1ccc(O)cc1)C(N)=O)[C@@H](C)CC)[C@@H](C)O (stereo partly shown) [67Ga-BBBpS_2, metal not drawn] ({NODAGA}-KYRSGAITIGY-NH2)	0.6 %ID/g

# evaluate next
q: Provide tissue uptake at 1 h value for the following compound: CC[C@H](C)[C@H](NC(=O)[C@H](Cc1c[nH]cn1)NC(=O)CCC(C(=O)O)N1CCN(CC(=O)O)CCN(CC(=O)O)CC1)C(=O)N[C@@H](CCC(N)=O)C(=O)N[C@@H](CC(C)C)C(=O)N[C@@H](CO)C(=O)N1CCC[C@H]1C(=O)N[C@@H](Cc1ccccc1)C(=O)N[C@@H](CO)C(=O)N[C@@H](CCC(N)=O)C(=O)N[C@@H](CO)C(=O)N[C@@H](Cc1c[nH]c2ccccc12)C(=O)N[C@@H](CCCNC(=N)N)C(N)=O (stereo partly shown) [67Ga-BBBpS_5, metal not drawn] ({NODAGA}-HIQLSPFSQSWR-NH2)
a: 1 %ID/g
